- Target desc: Man(a1-2)Man(a1-6)[Man(a1-3)]Man(a1-6)[Man(a1-2)Man(a1-2)Man(a1-3)]Man(b1-4)GlcNAc(b1-4)GlcNAc
- Test description: glycan array binding signal (z-score within array); higher = stronger binding
- Recorded conditions: glycan notation: IUPAC condensed, linker removed
The sample as a whole holds a higher share of the strongest signals than the screen did.
Give T when the value for glycan array binding signal (z-score) is at least -0.02. Give F when it is less.

These recorded examples may help you get a feel for the data.
Binder	Assigned category
PP2A1 (Arabidopsis thaliana) (protein) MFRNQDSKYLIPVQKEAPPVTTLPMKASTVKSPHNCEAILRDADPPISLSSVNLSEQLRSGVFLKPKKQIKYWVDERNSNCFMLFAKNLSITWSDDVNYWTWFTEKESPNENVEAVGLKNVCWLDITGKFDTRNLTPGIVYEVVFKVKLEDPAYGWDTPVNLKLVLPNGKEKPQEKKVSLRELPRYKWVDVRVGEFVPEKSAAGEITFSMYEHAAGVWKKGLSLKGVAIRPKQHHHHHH	T
CCL1 (Coprinopsis cinerea) (protein) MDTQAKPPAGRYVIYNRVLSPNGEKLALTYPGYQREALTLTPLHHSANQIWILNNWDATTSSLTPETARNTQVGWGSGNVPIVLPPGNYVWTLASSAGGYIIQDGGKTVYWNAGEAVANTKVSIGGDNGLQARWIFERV	F
MUB70 (Lactobacillus reuteri) (protein) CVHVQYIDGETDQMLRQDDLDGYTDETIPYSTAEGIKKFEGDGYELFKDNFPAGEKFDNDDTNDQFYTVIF	T

IN: Given the entry Surfactant Protein D (Human); Neck + Carbohydrate Recognition Domain (NCRD) (Homo sapiens) (protein) MLLFLLSALVLLTQPLGYLEAEMKTYSHRTMPSACTLVMCSSVESGLPGRDRDGREGPRGEKGDPGLPGAAGQAGMPGQAGPVGPKGDNGSVGEPGPKGDTGPSGPPGPPGVPGPAGREGALGKQGNIGPQGKPGPKGEAGPKGEVGAPGMQGSAGARGLAGPKGERGVPGERGVPGNTGAAGSAGAMGPQGSPGARGPPGLKGDKGIPGDKGAKGESGLPDVASLRQQVEALQGQVQHLQAAFSQYKKVELFPNGQSVGEKIFKTAQFVKPFTEAQLLCTQAGGQLASPRSAAENAALQQLVVAKNEAAFLSMTDSKTEGKFTYPTGESLVYSNWAPGEPNDDGGSEDCVEIFTNGKWNDRACGEKRLVVCEF , answer whether its glycan array binding signal (z-score) meets or surpasses -0.02.
OUT: T

IN: Please tell me: is the binder Dectin2 (Homo sapiens), Q6EIG7 (protein) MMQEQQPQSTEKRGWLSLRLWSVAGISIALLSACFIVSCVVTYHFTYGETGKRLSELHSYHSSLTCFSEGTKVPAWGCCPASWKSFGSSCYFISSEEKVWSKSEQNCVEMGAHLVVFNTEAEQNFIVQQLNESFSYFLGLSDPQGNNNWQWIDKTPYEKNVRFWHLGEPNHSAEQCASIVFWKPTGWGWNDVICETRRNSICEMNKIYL at or over -0.02 in terms of glycan array binding signal (z-score)?
OUT: T

Reference source for all entries: the supplement of paper PMC8728848
